All values here come from paper PMC6510891.

Target: T1, HpRap1A (Hansenula polymorpha DL-1, UniProt W1Q7Z6 1-613)
T1 sequence: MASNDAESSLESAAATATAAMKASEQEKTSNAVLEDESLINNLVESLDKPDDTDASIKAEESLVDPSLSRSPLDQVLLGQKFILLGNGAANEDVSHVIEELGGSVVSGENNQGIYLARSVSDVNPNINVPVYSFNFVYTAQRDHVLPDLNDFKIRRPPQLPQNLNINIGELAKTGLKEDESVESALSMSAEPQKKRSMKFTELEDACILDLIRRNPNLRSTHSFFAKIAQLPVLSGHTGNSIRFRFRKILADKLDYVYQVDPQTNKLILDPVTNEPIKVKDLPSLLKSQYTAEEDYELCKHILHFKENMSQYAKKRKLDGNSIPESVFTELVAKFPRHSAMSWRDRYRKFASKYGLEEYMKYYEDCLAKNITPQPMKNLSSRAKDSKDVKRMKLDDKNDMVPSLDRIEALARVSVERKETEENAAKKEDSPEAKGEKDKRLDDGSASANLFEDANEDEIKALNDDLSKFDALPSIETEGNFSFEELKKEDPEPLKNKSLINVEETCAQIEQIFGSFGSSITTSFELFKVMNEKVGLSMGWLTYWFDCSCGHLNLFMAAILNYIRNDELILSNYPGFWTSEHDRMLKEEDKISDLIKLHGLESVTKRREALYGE
Assay: competition SPR; score - vs VIIrAbs surface; SPR: 10 mM HEPES-NaOH pH 7.5, 150 mM NaCl, 0.5 mM DTT, 0.05% Tween 20, 1 mg/ml BSA, 0.02 mg/ml salmon sperm DNA; competition 2 nM protein with 20 or 200 nM competitor. EMSA: 20 mM HEPES-NaOH pH 7.5, 50 mM NaCl, 0.2 mg/ml BSA, 5% glycerol, 0.1 mg/ml salmon sperm DNA, room temperature
Details: protein: recombinant; blunt
METRIC: binding result

BINDER	RESULT
PACTA (dsDNA) DNA 1: TGTGAGTGGTGTGAGTGGTGTGAGTGG DNA 2: CCACTCACACCACTCACACCACTCACA	no binding
rnd2 (dsDNA) DNA 1: AAATCTAGACATGAAAAAAAAAATGTTAGTAATCGAAATCTC DNA 2: GAGATTTCGATTACTAACATTTTTTTTTTCATGTCTAGATTT	no binding
PICME (dsDNA) DNA 1: TAGAACTAGGTGTGCGGGGTATAATAG DNA 2: CTATTATACCCCGCACACCTAGTTCTA	no binding
CANAR (competitor) (dsDNA) DNA 1: GGTGTTGGGTGTTGGGTGTTGGG DNA 2: CCCAACACCCAACACCCAACACC	no binding
DEKBR (dsDNA) DNA 1: GGATTGGTGGATTGGTGGATTGGT DNA 2: ACCAATCCACCAATCCACCAATCC	no binding
rnd1 (competitor) (dsDNA) DNA 1: ACGACTCACTGTAGATACGACTCACTGTAGAT DNA 2: ATCTACAGTGAGTCGTATCTACAGTGAGTCGT	no binding
PICKU (competitor) (dsDNA) DNA 1: TGAACTAGGAGCGAGGTGTGTTAC DNA 2: GTAACACACCTCGCTCCTAGTTCA	no binding
PICPA (dsDNA) DNA 1: GGATGCTGGATGCTGGATGCTGGATGCT DNA 2: AGCATCCAGCATCCAGCATCCAGCATCC	no binding
HANPO4 (competitor) (dsDNA) DNA 1: GGGTGGCGGGGTGGCGGGGTGGCGGGGTGGCG DNA 2: CGCCACCCCGCCACCCCGCCACCCCGCCACCC	no binding
